assay: Particle size distribution (d10, d50, d90) by laser diffraction; format: physicochemical; details: spray dried amorphous ipatasertib monohydrochloride powder
Counter-ions that a name gives are not always drawn.
result.type: Particle size d50 (μm)

compound | unit.text | Particle size d50
CC(C)NC[C@@H](C(=O)N1CCN(c2ncnc3c2[C@H](C)C[C@H]3O)CC1)c1ccc(Cl)cc1 [Composition 130710451, ipatasertib monohydrochloride] | μm | 45

A = CC(C)NC[C@@H](C(=O)N1CCN(c2ncnc3c2[C@H](C)C[C@H]3O)CC1)c1ccc(Cl)cc1 [Composition 140210413, ipatasertib monohydrochloride]
B = CC(C)NC[C@@H](C(=O)N1CCN(c2ncnc3c2[C@H](C)C[C@H]3O)CC1)c1ccc(Cl)cc1 [Composition 140110407, ipatasertib monohydrochloride]
Qu. A or B : whose Particle size d50 is greater? Refer to your chosen item by its label in the answer.
Ans. A

1 = CC(C)NC[C@@H](C(=O)N1CCN(c2ncnc3c2[C@H](C)C[C@H]3O)CC1)c1ccc(Cl)cc1 [Composition 140910415, ipatasertib monohydrochloride]
2 = CC(C)NC[C@@H](C(=O)N1CCN(c2ncnc3c2[C@H](C)C[C@H]3O)CC1)c1ccc(Cl)cc1 [Example 6C′, ipatasertib monohydrochloride]
Qu. Of 1 versus 2 , which is the one with smaller reported Particle size d50? Refer to your chosen item by its label in the answer.
Ans. 2
(2: 3.0 μm, 1: 29 μm)

----------
test: Shear cell testing with Ring Shear Tester RST-XS; format: physicochemical; settings: Pre-shear stress 1000 PA, 30 mL shear cell; monohydrochloride
Where a name gives a salt, the structure may show the parent alone.
result.type: Flow Function Constant (ffc)

compound | Flow Function Constant (ffc)
CC(C)NC[C@@H](C(=O)N1CCN(c2ncnc3c2[C@H](C)C[C@H]3O)CC1)c1ccc(Cl)cc1 [Composition 140910417, ipatasertib monohydrochloride] | 2.9
CC(C)NC[C@@H](C(=O)N1CCN(c2ncnc3c2[C@H](C)C[C@H]3O)CC1)c1ccc(Cl)cc1 [Composition 140910418, ipatasertib monohydrochloride] | 3.1
CC(C)NC[C@@H](C(=O)N1CCN(c2ncnc3c2[C@H](C)C[C@H]3O)CC1)c1ccc(Cl)cc1 [BS1506SA02, ipatasertib monohydrochloride] | 3.5

----------
experiment: Bulk density, tapped density and Carr index; assay type: physicochemical; conditions: spray dried amorphous ipatasertib monohydrochloride powder; monohydrochloride
Where a name gives a salt, the structure may show the parent alone.
result.type: Tapped density (gcm^−3)

molecule | Tapped density / gcm^−3
CC(C)NC[C@@H](C(=O)N1CCN(c2ncnc3c2[C@H](C)C[C@H]3O)CC1)c1ccc(Cl)cc1 [Composition 140210413, ipatasertib monohydrochloride] | 0.59
CC(C)NC[C@@H](C(=O)N1CCN(c2ncnc3c2[C@H](C)C[C@H]3O)CC1)c1ccc(Cl)cc1 [Composition 140110408, ipatasertib monohydrochloride] | 0.50
CC(C)NC[C@@H](C(=O)N1CCN(c2ncnc3c2[C@H](C)C[C@H]3O)CC1)c1ccc(Cl)cc1 [Composition 140210414, ipatasertib monohydrochloride] | 0.57
CC(C)NC[C@@H](C(=O)N1CCN(c2ncnc3c2[C@H](C)C[C@H]3O)CC1)c1ccc(Cl)cc1 [Composition 141210423, ipatasertib monohydrochloride] | 0.55
CC(C)NC[C@@H](C(=O)N1CCN(c2ncnc3c2[C@H](C)C[C@H]3O)CC1)c1ccc(Cl)cc1 [Composition 130810453, ipatasertib monohydrochloride] | 0.45
CC(C)NC[C@@H](C(=O)N1CCN(c2ncnc3c2[C@H](C)C[C@H]3O)CC1)c1ccc(Cl)cc1 [Composition 140110411, ipatasertib monohydrochloride] | 0.51
CC(C)NC[C@@H](C(=O)N1CCN(c2ncnc3c2[C@H](C)C[C@H]3O)CC1)c1ccc(Cl)cc1 [Composition 140910415, ipatasertib monohydrochloride] | 0.57
CC(C)NC[C@@H](C(=O)N1CCN(c2ncnc3c2[C@H](C)C[C@H]3O)CC1)c1ccc(Cl)cc1 [Composition 130710452, ipatasertib monohydrochloride] | 0.47
CC(C)NC[C@@H](C(=O)N1CCN(c2ncnc3c2[C@H](C)C[C@H]3O)CC1)c1ccc(Cl)cc1 [Composition 141210422, ipatasertib monohydrochloride] | 0.54
CC(C)NC[C@@H](C(=O)N1CCN(c2ncnc3c2[C@H](C)C[C@H]3O)CC1)c1ccc(Cl)cc1 [Composition 140910418, ipatasertib monohydrochloride] | 0.55

----------
test: Shear cell testing with Ring Shear Tester RST-XS; assay type: physicochemical; settings: Pre-shear stress 1000 PA, 30 mL shear cell; monohydrochloride
Structures can show the parent of a compound that is named as a salt.
result.type: Flow Function Constant (ffc)

molecule | result.type | measured.number
CC(C)NC[C@@H](C(=O)N1CCN(c2ncnc3c2[C@H](C)C[C@H]3O)CC1)c1ccc(Cl)cc1 [BS1506SA01, ipatasertib monohydrochloride] | Flow Function Constant (ffc) | 4.0
CC(C)NC[C@@H](C(=O)N1CCN(c2ncnc3c2[C@H](C)C[C@H]3O)CC1)c1ccc(Cl)cc1 [Composition 140910420, ipatasertib monohydrochloride] | Flow Function Constant (ffc) | 2.4
CC(C)NC[C@@H](C(=O)N1CCN(c2ncnc3c2[C@H](C)C[C@H]3O)CC1)c1ccc(Cl)cc1 [Composition 140910415, ipatasertib monohydrochloride] | Flow Function Constant (ffc) | 3.3
CC(C)NC[C@@H](C(=O)N1CCN(c2ncnc3c2[C@H](C)C[C@H]3O)CC1)c1ccc(Cl)cc1 [Composition 140910416, ipatasertib monohydrochloride] | Flow Function Constant (ffc) | 2.8
CC(C)NC[C@@H](C(=O)N1CCN(c2ncnc3c2[C@H](C)C[C@H]3O)CC1)c1ccc(Cl)cc1 [BS1506SA08, ipatasertib monohydrochloride] | Flow Function Constant (ffc) | 3.4

----------
assay: Particle size distribution (d10, d50, d90) by laser diffraction; assay type: physicochemical; settings: spray dried amorphous ipatasertib monohydrochloride powder
Structures can show the parent of a compound that is named as a salt.
result.type: Particle size d50 (μm)

Illustrative cases are given below, each with its answer.
compound | unit.text | Particle size d50
CC(C)NC[C@@H](C(=O)N1CCN(c2ncnc3c2[C@H](C)C[C@H]3O)CC1)c1ccc(Cl)cc1 [Composition 130810454, ipatasertib monohydrochloride] | μm | 36
CC(C)NC[C@@H](C(=O)N1CCN(c2ncnc3c2[C@H](C)C[C@H]3O)CC1)c1ccc(Cl)cc1 [Composition 141210422, ipatasertib monohydrochloride] | μm | 27
CC(C)NC[C@@H](C(=O)N1CCN(c2ncnc3c2[C@H](C)C[C@H]3O)CC1)c1ccc(Cl)cc1 [Composition 140910417, ipatasertib monohydrochloride] | μm | 27

I = CC(C)NC[C@@H](C(=O)N1CCN(c2ncnc3c2[C@H](C)C[C@H]3O)CC1)c1ccc(Cl)cc1 [Composition 140110404, ipatasertib monohydrochloride]
II = CC(C)NC[C@@H](C(=O)N1CCN(c2ncnc3c2[C@H](C)C[C@H]3O)CC1)c1ccc(Cl)cc1 [Composition 141210421, ipatasertib monohydrochloride]
Qu. Of I versus II , which is the one with smaller reported Particle size d50? Refer to your chosen item by its label in the answer.
Ans. II
(II: 28 μm, I: 47 μm)

----------
test: Particle size distribution (d10, d50, d90) by laser diffraction; type: physicochemical; details: spray dried amorphous ipatasertib monohydrochloride powder
Where a name gives a salt, the structure may show the parent alone.
result.type: Particle size d10 (μm)

Illustrative cases are given below, each with its answer.
molecule | Particle size d10 / μm
CC(C)NC[C@@H](C(=O)N1CCN(c2ncnc3c2[C@H](C)C[C@H]3O)CC1)c1ccc(Cl)cc1 [Composition 140110406, ipatasertib monohydrochloride] | 10.2
CC(C)NC[C@@H](C(=O)N1CCN(c2ncnc3c2[C@H](C)C[C@H]3O)CC1)c1ccc(Cl)cc1 [Composition 141210425, ipatasertib monohydrochloride] | 11
CC(C)NC[C@@H](C(=O)N1CCN(c2ncnc3c2[C@H](C)C[C@H]3O)CC1)c1ccc(Cl)cc1 [Composition 140210414, ipatasertib monohydrochloride] | 18

a = CC(C)NC[C@@H](C(=O)N1CCN(c2ncnc3c2[C@H](C)C[C@H]3O)CC1)c1ccc(Cl)cc1 [Example 6C′, ipatasertib monohydrochloride]
b = CC(C)NC[C@@H](C(=O)N1CCN(c2ncnc3c2[C@H](C)C[C@H]3O)CC1)c1ccc(Cl)cc1 [Composition 140110404, ipatasertib monohydrochloride]
Qu. Of a versus b , which is the one with smaller reported Particle size d10? Refer to your chosen item by its label in the answer.
Ans. a
(a: 0.8 μm, b: 12.5 μm)

----------
experiment: Solid state by X-ray powder diffraction; format: physicochemical; settings: * indicates absence of crystalline API; monohydrochloride
Structures can show the parent of a compound that is named as a salt.
result.type: Solid state / Polymorphy (X-Ray, XRPD)

compound | result.type | result
CC(C)NC[C@@H](C(=O)N1CCN(c2ncnc3c2[C@H](C)C[C@H]3O)CC1)c1ccc(Cl)cc1 [Composition 140110406, ipatasertib monohydrochloride] | Solid state / Polymorphy (X-Ray, XRPD) | amorphous*
CC(C)NC[C@@H](C(=O)N1CCN(c2ncnc3c2[C@H](C)C[C@H]3O)CC1)c1ccc(Cl)cc1 [Composition 140210414, ipatasertib monohydrochloride] | Solid state / Polymorphy (X-Ray, XRPD) | amorphous*
CC(C)NC[C@@H](C(=O)N1CCN(c2ncnc3c2[C@H](C)C[C@H]3O)CC1)c1ccc(Cl)cc1 [Composition 140110409, ipatasertib monohydrochloride] | Solid state / Polymorphy (X-Ray, XRPD) | amorphous*

Entry source: patent US12440492B2
